// data source = ChEMBL document CHEMBL4680175

Test system: MCF7
Experimental protocol: Antiproliferative activity against human MCF7 cells measured after 48 hrs under normoxic condition by MTT assay
Type: functional, cell-based
Details: MCF7, 48 h
Reported pIC50 is given for each of the following compounds.
API: returns pIC50 as number; meaning -log10 of concentration in mol/L.

{"Record smiles": "Cc1ccc(-c2nc3c(/N=N/c4ccc(S(N)(=O)=O)cc4)c(N)nn3c(N)c2C#N)cc1", "pIC50": 5.17}
{"Record smiles": "N#Cc1c(-c2ccc(Cl)cc2)nc2c(/N=N/c3ccc(S(N)(=O)=O)cc3)c(N)nn2c1N", "pIC50": 5.68}
{"Record smiles": "N#Cc1c(-c2ccccc2)nc2c(/N=N/c3ccc(S(N)(=O)=O)cc3)c(N)nn2c1N", "pIC50": 6.18}

## Input Recall and state the measured pIC50 for N#Cc1c(-c2ccc(Br)cc2)nc2c(/N=N/c3ccc(S(N)(=O)=O)cc3)c(N)nn2c1N .
## Output 5.32

## Input Provide pIC50 value for the following compound: N#Cc1c(-c2ccc(F)cc2)nc2c(/N=N/c3ccc(S(N)(=O)=O)cc3)c(N)nn2c1N
## Output 5.53

---

Test system: NCI-H522
Experimental protocol: Antitumor activity against human NCI-H522 cells assessed as cell growth inhibition at 10 uM incubated for 48 hrs by sulforhodamine B assay
Type: functional
Details: read-out: GI
The recorded inhibition of growth at 10 µM of each item maps onto one of these classes: Low (below 40%), Medium (40% to below 60%), High (60% or more)

Example results:
{"Record smiles": "Nc1nn2cc(-c3ccc(Br)cc3)[nH]c2c1/N=N/c1ccc(S(N)(=O)=O)cc1", "Label": "Medium"}
{"Record smiles": "Nc1nn2cc(-c3ccccc3)[nH]c2c1/N=N/c1ccc(S(N)(=O)=O)cc1", "Label": "High"}
{"Record smiles": "N#Cc1c(-c2ccc(Cl)cc2)nc2c(/N=N/c3ccc(S(N)(=O)=O)cc3)c(N)nn2c1N", "Label": "Low"}

## Input Band for Nc1nn2cc(-c3ccc(F)cc3)[nH]c2c1/N=N/c1ccc(S(N)(=O)=O)cc1 ?
## Output Medium

## Input Which inhibition of growth at 10 µM band matches Cc1ccc(-c2cn3nc(N)c(/N=N/c4ccc(S(N)(=O)=O)cc4)c3[nH]2)cc1 ?
## Output Medium

## Input Could you place Cc1ccc(-c2nc3c(/N=N/c4ccc(S(N)(=O)=O)cc4)c(N)nn3c(N)c2C#N)cc1 in its proper category? Many thanks.
## Output High

## Input Please report the category associated with N#Cc1c(-c2ccc(F)cc2)nc2c(/N=N/c3ccc(S(N)(=O)=O)cc3)c(N)nn2c1N , nothing else.
## Output Low

## Input State the band of N#Cc1c(-c2ccccc2)nc2c(/N=N/c3ccc(S(N)(=O)=O)cc3)c(N)nn2c1N
## Output Medium

## Input Field: class (inhibition of growth at 10 µM) — entry: Nc1nn2cc(-c3ccc(Cl)cc3)[nH]c2c1/N=N/c1ccc(S(N)(=O)=O)cc1
## Output Low

---

System: UO-31
Experimental protocol: Antitumor activity against human UO-31 cells assessed as cell growth inhibition at 10 uM incubated for 48 hrs by sulforhodamine B assay
Format: functional
Details: read-out: GI
Readout: inhibition of growth at 10 µM (%)
Give just the numeric value; % need not be written.

{"Record smiles": "N#Cc1c(-c2ccc(Br)cc2)nc2c(/N=N/c3ccc(S(N)(=O)=O)cc3)c(N)nn2c1N", "inhibition of growth at 10 µM (%)": 41}
{"Record smiles": "N#Cc1c(-c2ccc(Cl)cc2)nc2c(/N=N/c3ccc(S(N)(=O)=O)cc3)c(N)nn2c1N", "inhibition of growth at 10 µM (%)": 36}
{"Record smiles": "N#Cc1c(-c2ccccc2)nc2c(/N=N/c3ccc(S(N)(=O)=O)cc3)c(N)nn2c1N", "inhibition of growth at 10 µM (%)": 25}
{"Record smiles": "Nc1nn2cc(-c3ccc(F)cc3)[nH]c2c1/N=N/c1ccc(S(N)(=O)=O)cc1", "inhibition of growth at 10 µM (%)": 42}

## Input Report measured inhibition of growth at 10 µM; entry is Nc1nn2cc(-c3ccc(Cl)cc3)[nH]c2c1/N=N/c1ccc(S(N)(=O)=O)cc1
## Output 22

---

The molecules listed here are annotated with their inhibition of growth at 10 µM.
System: PC-3
Experimental protocol: Antitumor activity against human PC-3 cells assessed as cell growth inhibition at 10 uM incubated for 48 hrs by sulforhodamine B assay
Format: functional
Details: read-out: GI
# unit: % | format: bare number

{"Record smiles": "Cc1ccc(-c2nc3c(/N=N/c4ccc(S(N)(=O)=O)cc4)c(N)nn3c(N)c2C#N)cc1", "inhibition of growth at 10 µM / %": 68}

## Input Find the measured inhibition of growth at 10 µM of N#Cc1c(-c2ccc(Br)cc2)nc2c(/N=N/c3ccc(S(N)(=O)=O)cc3)c(N)nn2c1N and report it.
## Output 62

## Input Write down inhibition of growth at 10 µM measured for item Cc1ccc(-c2cn3nc(N)c(/N=N/c4ccc(S(N)(=O)=O)cc4)c3[nH]2)cc1
## Output 43

---

System: 786-0
Experimental protocol: Antitumor activity against human 786-0 cells assessed as cell growth inhibition at 10 uM incubated for 48 hrs by sulforhodamine B assay
Assay type: functional
Details: read-out: GI
Rule: inhibition of growth at 10 µM of 60% or more gives Y; anything lower gives N.

Example results:
{"Record smiles": "Nc1nn2cc(-c3ccc(F)cc3)[nH]c2c1/N=N/c1ccc(S(N)(=O)=O)cc1", "Label": "N"}
{"Record smiles": "Nc1nn2cc(-c3ccc(Br)cc3)[nH]c2c1/N=N/c1ccc(S(N)(=O)=O)cc1", "Label": "N"}
{"Record smiles": "N#Cc1c(-c2ccc(Br)cc2)nc2c(/N=N/c3ccc(S(N)(=O)=O)cc3)c(N)nn2c1N", "Label": "N"}
{"Record smiles": "Nc1nn2cc(-c3ccccc3)[nH]c2c1/N=N/c1ccc(S(N)(=O)=O)cc1", "Label": "Y"}
{"Record smiles": "Nc1nn2cc(-c3ccc(Cl)cc3)[nH]c2c1/N=N/c1ccc(S(N)(=O)=O)cc1", "Label": "N"}

## Input Is it the case that Cc1ccc(-c2nc3c(/N=N/c4ccc(S(N)(=O)=O)cc4)c(N)nn3c(N)c2C#N)cc1 has inhibition of growth at 10 µM reaching or exceeding 60%?
## Output N

---

The following molecules are shown together with reported inhibition of growth at 10 µM values.
System: COLO 205
Experimental protocol: Antitumor activity against human COLO205 cells assessed as cell growth inhibition at 10 uM incubated for 48 hrs by sulforhodamine B assay
Format: functional
Details: read-out: GI
Report the figure in % without appending any unit label.

## Input With COLO 205 as the test system, provide measured inhibition of growth at 10 µM for this molecule: Nc1nn2cc(-c3ccc(Br)cc3)[nH]c2c1/N=N/c1ccc(S(N)(=O)=O)cc1
## Output 28

---

The entries below are paired with their reported IC50.
Measurement target: Cyclin-dependent kinase 2/cyclin E1 (Homo sapiens, UniProt P24941)
Experimental protocol: Inhibition of CDK2/cyclin E (unknown origin) expressed in baculovirus infected Sf21 insect cells using histone H1 as substrate in presence of [gamma33P]ATP

As a guide, the following entries are already answered.
{"Record smiles": "Nc1nn2cc(-c3ccccc3)[nH]c2c1/N=N/c1ccc(S(N)(=O)=O)cc1", "IC50": "> 25 µM"}
{"Record smiles": "Nc1nn2cc(-c3ccc(Cl)cc3)[nH]c2c1/N=N/c1ccc(S(N)(=O)=O)cc1", "IC50": "> 12.5 µM"}
{"Record smiles": "COc1ccc(-c2ccnc3c(/N=N/c4ccc(S(N)(=O)=O)cc4)c(N)nn23)cc1", "IC50": "> 12.5 µM"}
{"Record smiles": "N#Cc1c(-c2ccc(F)cc2)nc2c(/N=N/c3ccc(S(N)(=O)=O)cc3)c(N)nn2c1N", "IC50": "> 12.5 µM"}
{"Record smiles": "Nc1nn2c(-c3cccs3)ccnc2c1/N=N/c1ccc(S(N)(=O)=O)cc1", "IC50": "> 12.5 µM"}

Now turn to the next compound.
## Input Quote Cyclin-dependent kinase 2/cyclin E1 (Homo sapiens, UniProt P24941) IC50 for entry Cc1ccc(-c2nc3c(/N=N/c4ccc(S(N)(=O)=O)cc4)c(N)nn3c(N)c2C#N)cc1 .
## Output 11.6 µM

---

Measurement target: Carbonic anhydrase 12 (Homo sapiens, UniProt O43570)
Sequence (O43570 whole entry): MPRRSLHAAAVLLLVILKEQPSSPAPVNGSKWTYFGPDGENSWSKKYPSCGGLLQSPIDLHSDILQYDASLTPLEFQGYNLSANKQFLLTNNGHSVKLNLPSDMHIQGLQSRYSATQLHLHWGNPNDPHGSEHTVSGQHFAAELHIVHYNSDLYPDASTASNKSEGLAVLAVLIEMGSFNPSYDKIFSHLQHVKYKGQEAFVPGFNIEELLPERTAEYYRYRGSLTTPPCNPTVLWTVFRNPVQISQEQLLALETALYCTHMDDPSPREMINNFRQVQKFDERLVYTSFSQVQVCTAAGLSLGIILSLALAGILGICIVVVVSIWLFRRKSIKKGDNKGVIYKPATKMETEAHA
Experimental protocol: Inhibition of recombinant human carbonic anhydrase 12 preincubated with enzyme for 15 mins by phenol red dye based stopped flow CO2 hydrase assay
Each record here notes measured Ki.
Output spec: scalar in nM, unitless text.

{"Record smiles": "Nc1nn2c(-c3ccc([N+](=O)[O-])cc3)ccnc2c1/N=N/c1ccc(S(N)(=O)=O)cc1", "Readout": "Ki", "Value units": "nM", "Observed result": 14.4}
{"Record smiles": "N#Cc1c(-c2ccc(Br)cc2)nc2c(/N=N/c3ccc(S(N)(=O)=O)cc3)c(N)nn2c1N", "Readout": "Ki", "Value units": "nM", "Observed result": 43.2}
{"Record smiles": "Cc1ccc(-c2cn3nc(N)c(/N=N/c4ccc(S(N)(=O)=O)cc4)c3[nH]2)cc1", "Readout": "Ki", "Value units": "nM", "Observed result": 27.7}
{"Record smiles": "N#Cc1c(-c2ccc(F)cc2)nc2c(/N=N/c3ccc(S(N)(=O)=O)cc3)c(N)nn2c1N", "Readout": "Ki", "Value units": "nM", "Observed result": 10.9}
{"Record smiles": "Cc1ccc(-c2nc3c(/N=N/c4ccc(S(N)(=O)=O)cc4)c(N)nn3c(N)c2C#N)cc1", "Readout": "Ki", "Value units": "nM", "Observed result": 48.8}
{"Record smiles": "Cc1ccc(-c2ccnc3c(/N=N/c4ccc(S(N)(=O)=O)cc4)c(N)nn23)cc1", "Readout": "Ki", "Value units": "nM", "Observed result": 60.7}

## Input // fetch Ki given entry Nc1nn2c(-c3ccccc3)ccnc2c1/N=N/c1ccc(S(N)(=O)=O)cc1
## Output 25.4

## Input Specify Ki for Nc1nn2c(-c3ccc(F)cc3)ccnc2c1/N=N/c1ccc(S(N)(=O)=O)cc1 and stop.
## Output 31.4

## Input State its Ki: Nc1nn2c(-c3cccs3)ccnc2c1/N=N/c1ccc(S(N)(=O)=O)cc1
## Output 59

## Input Return value of Ki for input Nc1nn2cc(-c3ccc(Br)cc3)[nH]c2c1/N=N/c1ccc(S(N)(=O)=O)cc1 , no commentary.
## Output 52.8

## Input Give the measured Ki for Nc1nn2cc(-c3ccccc3)[nH]c2c1/N=N/c1ccc(S(N)(=O)=O)cc1
## Output 30.6

## Input Recall and state the measured Ki for Nc1n[nH]c(N)c1/N=N/c1ccc(S(N)(=O)=O)cc1 .
## Output 10.1
